Values were extracted from patent US20210395242A1.

So I've got a bunch of compounds here, and I need their IC50 values.
Target: CYP1A1 (Homo sapiens, UniProt P04798)
Construct: purchased Cypex
Sequence (P04798 whole entry): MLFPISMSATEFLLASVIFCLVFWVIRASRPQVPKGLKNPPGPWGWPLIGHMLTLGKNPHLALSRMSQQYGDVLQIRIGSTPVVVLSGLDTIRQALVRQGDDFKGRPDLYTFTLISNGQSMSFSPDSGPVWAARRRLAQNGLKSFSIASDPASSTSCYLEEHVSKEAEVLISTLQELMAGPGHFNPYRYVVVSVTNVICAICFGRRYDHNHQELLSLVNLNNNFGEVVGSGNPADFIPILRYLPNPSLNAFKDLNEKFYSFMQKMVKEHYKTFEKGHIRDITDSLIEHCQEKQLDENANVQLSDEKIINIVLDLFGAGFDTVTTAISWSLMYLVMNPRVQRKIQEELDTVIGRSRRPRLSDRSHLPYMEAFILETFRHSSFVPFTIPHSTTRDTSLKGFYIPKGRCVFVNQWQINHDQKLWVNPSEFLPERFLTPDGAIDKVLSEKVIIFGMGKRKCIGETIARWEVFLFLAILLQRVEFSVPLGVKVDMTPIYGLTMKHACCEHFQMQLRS
Test: CYP1A1 inhibition assay (Promega P450-Glo, Cypex CYP1A1 bactosomes)
Format: biochemical
Details: Luciferin-CEE 30 μM, 0.2 mM NADPH, 37° C. 10 minutes, arithmetic mean of pIC50
One number for each entry, in nM.

Check out these entries, answers already filled in.
Measured IC50 of Cc1cc(NC(=O)c2ccnn2C)ccc1-c1nc2ccccc2o1 : 200

Measured IC50 of Cc1cccc2nc(-c3ccc(NC(=O)c4ccnn4C)cc3)oc12 : 631

Measured IC50 of Cn1nccc1C(=O)Nc1ccc(-c2nc3cccc(CO)c3o2)cc1 : 794

Measured IC50 of Cn1nccc1C(=O)Nc1ccc(-c2nc3ccccc3[nH]2)cc1 : 224

Measured IC50 of COCCn1nccc1C(=O)Nc1ccc(-c2nc3ccccc3o2)cc1 : 794

Provide IC50 for all items below, preserving their order.
1. Cn1nccc1C(=O)Nc1ccc(-c2nc3cccc(C#N)c3o2)cc1
2. Cn1nccc1C(=O)Nc1ccc(-c2nc3cccc(Cl)c3[nH]2)cc1
3. Cn1nccc1C(=O)Nc1ccc(-c2nc3ccccc3s2)cc1
4. Cn1nccc1C(=O)Nc1ccc(-c2nc3cccc(C(=O)NCCc4c[nH]c5ccccc45)c3o2)cc1
5. CNC(=O)c1cccc2nc(-c3ccc(NC(=O)c4ccnn4C)cc3)oc12

1. 2510
2. 316
3. 316
4. 251
5. 1000
